Tested on: Caco-2
experiment.description: Antiproliferative activity against human Caco-2 cell line at 10 uM relative to control
Assay type: functional
*1 amine or outer side, *2 acyl side, *3 side chain or, on linkers, in order; H or OH if unused. Where a SMILES comes first, the peptide text is derived from it. [ ]: non-standard residue; d: D form. X2 = O=C(C1(N[*:1])C2CC3CC(C2)CC1C3)[*:2]
A collection of compounds and their measured inhibition at 10 µM
metric: inhibition at 10 µM (%)

CSCC[C@H](NC(=O)[C@H](Cc1ccccc1)NC(=O)CNC(=O)CNC(=O)[C@@H](N)Cc1ccc(O)cc1)C(=O)O : 6.4
N[C@@H](Cc1ccc(O)cc1)C(=O)N[C@H](C(=O)O)C1C2CC3CC(C2)CC1C3 (some centres undefined) : 16.5
CSCC[C@H](NC(=O)[C@H](Cc1ccccc1)NC(=O)CNC(=O)C1(NC(=O)[C@@H](N)Cc2ccc(O)cc2)C2CC3CC(C2)CC1C3)C(=O)O (some centres undefined) (H-Y[X2]GFM-OH) : 8.4
N[C@@H](Cc1ccc(O)cc1)C(=O)N[C@H](C(=O)NCC(=O)O)C1C2CC3CC(C2)CC1C3 (some centres undefined) : 4.2
